Biological target: Vitamin K-dependent gamma-carboxylase (Rattus norvegicus)
Assay: Relative activity for […] rat liver vitamin K dependent carboxylase mediated carboxylation of pentapeptide at 1 mM.
Assay type: functional, tissue-based
Square brackets hold non-standard residues; d marks the D form. Peptide text beside a SMILES is read from it. * marks the point of attachment. ξ: configuration not given here. ξF = NC(Cc1ccccc1)C(=O)O; X1 = CO[C@H](CC(C)C)N*; Boc = CC(C)(C)OC(=O)*
Observable: Relative activity (%)

In the examples that follow, each entry is paired with its recorded Relative activity.
[
  {
    "Compound": "CC(C)C[C@H](NC(=O)[C@H](CCC(=O)O)NC(=O)[C@@H](CCC(=O)O)NC(=O)[C@H](CC(C)C)NC(=O)[C@@H](N)Cc1ccccc1)C(=O)O",
    "Relative activity, %": 100
  },
  {
    "Compound": "COC(=O)[C@H](CC(C)C)NC(=O)[C@H](CCC(=O)O)NC(=O)[C@H](CCC(=O)O)NC(=O)[C@@H](CC(C)C)NC(=O)OC(C)(C)C",
    "Relative activity, %": 55
  },
  {
    "Compound": "CO[C@H](CC(C)C)NC(=O)[C@H](CCC(=O)O)NC(=O)[C@H](CCC(=O)O)NC(=O)[C@H](CC(C)C)NC(=O)C(Cc1ccccc1)NC(=O)OC(C)(C)C (some centres not stated) (Boc-[ξF]LEE-X1)",
    "Relative activity, %": 24
  },
  {
    "Compound": "CC(C)C[C@H](NC(=O)[C@H](CCC(=O)O)NC(=O)[C@H](CCC(=O)O)NC(=O)CNC(=O)[C@@H](N)Cc1ccccc1)C(=O)O (H-FGEEL-OH)",
    "Relative activity, %": 4
  },
  {
    "Compound": "COC(=O)NC(=O)[C@H](CCC(=O)O)NC(=O)[C@H](C)NC(=O)[C@H](CCC(=O)O)NC(=O)OC(C)(C)C",
    "Relative activity, %": 4
  }
]

a: COC(=O)NC(=O)[C@H](CC(C)C)NC(=O)[C@H](CCC(=O)O)NC(=O)C(CC(=O)O)NC(=O)OC(C)(C)C (some centres not stated)
b: COC(=O)[C@H](CC(C)C)NC(=O)[C@H](CCC(=O)O)NC(=O)[C@H](CCC(=O)O)NC(=O)CNC(=O)[C@H](Cc1ccccc1)NC(=O)OC(C)(C)C (HELM PEPTIDE1{[CC(C)(C)OC(=O)[*:2]].F.G.E.E.L.[CO[*:1]]}$$$$V2.0)
c: COC(=O)[C@H](CC(C)C)NC(=O)[C@H](CCC(=O)O)NC(=O)[C@H](CCC(=O)O)NC(=O)OC(C)(C)C
Hey, quick one: sort these by Relative activity, low to high? Output the labels ranked as instructed.
a, b, c

---

Biological target: Vitamin K-dependent gamma-carboxylase (Rattus norvegicus)
Experiment: Relative activity for […] rat liver vitamin K dependent carboxylase mediated carboxylation of pentapeptide at 1 mM.
Format: functional, tissue-based
Numbered stars: 1 amine (or outer) side, 2 acyl side, 3 side chain; on linkers, the order of the positions; unused ones are H or OH. Peptide text beside a SMILES is read from it. * marks the point of attachment. Pyrrolidin1yl(2S-Ac) = CC(=O)[C@@H]1CCCN1*; CO = O=C([*:1])[*:2]
Observable: Relative activity (%)

[
  {
    "Molecule": "COC(=O)[C@H](CCC(=O)O)NC(=O)[C@H](C)NC(=O)[C@H](CCC(=O)O)NC(=O)[C@H](CC(C)C)NC(=O)N1CCC[C@H]1C(C)=O ({Pyrrolidin1yl(2S-Ac)-CO}-LEAE-OMe)",
    "Observable": "Relative activity",
    "Unit text": "%",
    "Meas value": 25
  }
]

I: COC(=O)[C@@H](CC(C)C)NC(=O)[C@H](CCC(=O)O)NC(=O)[C@H](CCC(=O)O)NC(=O)[C@@H](CC(C)C)NC(=O)OC(C)(C)C
II: CC(C)C[C@H](NC(=O)[C@H](CCC(=O)O)NC(=O)[C@H](CCC(=O)O)NC(=O)[C@@H](N)CC(C)C)C(=O)O (H-LEEL-OH)
Recorded Relative activity values differ for I and II ; which one is higher? Response format: the label of the selected entry.
I

---

Target: Vitamin K-dependent gamma-carboxylase (Rattus norvegicus) (UniProt O88496)
Sequence (whole entry): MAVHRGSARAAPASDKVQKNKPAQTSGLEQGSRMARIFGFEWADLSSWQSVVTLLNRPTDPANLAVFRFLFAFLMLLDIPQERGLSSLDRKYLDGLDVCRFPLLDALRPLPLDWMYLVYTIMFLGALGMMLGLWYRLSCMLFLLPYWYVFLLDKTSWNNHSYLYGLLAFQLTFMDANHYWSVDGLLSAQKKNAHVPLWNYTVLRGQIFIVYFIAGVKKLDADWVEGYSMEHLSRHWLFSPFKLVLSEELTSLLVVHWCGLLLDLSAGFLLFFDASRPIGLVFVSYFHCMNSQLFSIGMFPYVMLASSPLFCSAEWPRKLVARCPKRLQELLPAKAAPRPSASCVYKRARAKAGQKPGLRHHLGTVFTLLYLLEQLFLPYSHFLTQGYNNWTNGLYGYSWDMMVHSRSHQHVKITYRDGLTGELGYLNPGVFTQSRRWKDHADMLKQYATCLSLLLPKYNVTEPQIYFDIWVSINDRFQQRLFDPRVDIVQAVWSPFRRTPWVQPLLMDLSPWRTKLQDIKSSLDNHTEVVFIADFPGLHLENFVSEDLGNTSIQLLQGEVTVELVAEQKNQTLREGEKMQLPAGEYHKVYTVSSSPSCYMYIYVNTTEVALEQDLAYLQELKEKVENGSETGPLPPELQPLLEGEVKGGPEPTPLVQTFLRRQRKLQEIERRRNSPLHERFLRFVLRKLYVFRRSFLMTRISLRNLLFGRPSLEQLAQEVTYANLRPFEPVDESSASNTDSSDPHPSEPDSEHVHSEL
Test: Relative activity for […] rat liver vitamin K dependent carboxylase mediated carboxylation of pentapeptide at 1 mM.
Assay type: functional, tissue-based
Numbered stars: 1 amine (or outer) side, 2 acyl side, 3 side chain; on linkers, the order of the positions; unused ones are H or OH. Peptide text beside a SMILES is read from it. * marks the point of attachment. CO = O=C([*:1])[*:2]; OtBu = CC(C)(C)O*
Observable: Relative activity (%)

[
  {
    "Molecule": "CC(C)(C)OC(=O)N[C@H](CCC(=O)O)C(=O)OCc1ccccc1",
    "Observable": "Relative activity",
    "Unit text": "%",
    "Meas value": 5
  },
  {
    "Molecule": "COC(=O)[C@H](CCC(=O)O)NC(=O)[C@H](C)NC(=O)[C@H](CCC(=O)O)NC(=O)[C@H](CC(C)C)NC(=O)OC(C)(C)C (HELM PEPTIDE1{[CC(C)(C)OC(=O)[*:2]].L.E.A.E.[CO[*:1]]}$$$$V2.0)",
    "Observable": "Relative activity",
    "Unit text": "%",
    "Meas value": 46
  },
  {
    "Molecule": "COC(=O)[C@@H](CC(C)C)NC(=O)[C@H](CCC(=O)O)NC(=O)[C@H](CCC(=O)O)NC(=O)[C@H](CC(C)C)NC(=O)OC(C)(C)C",
    "Observable": "Relative activity",
    "Unit text": "%",
    "Meas value": 77
  },
  {
    "Molecule": "COC(=O)NC(=O)[C@H](CC(C)C)NC(=O)[C@H](CCC(=O)O)NC(=O)C(CCSC)NC(=O)CC(C)C (stereo partly drawn)",
    "Observable": "Relative activity",
    "Unit text": "%",
    "Meas value": 6
  },
  {
    "Molecule": "COC(=O)[C@@H](CC(C)C)NC(=O)[C@H](CCC(=O)O)NC(=O)[C@H](CCC(=O)O)NC(=O)OC(C)(C)C",
    "Observable": "Relative activity",
    "Unit text": "%",
    "Meas value": 19
  }
]

I: COC(=O)[C@H](CCC(=O)O)NC(=O)[C@H](C)NC(=O)[C@H](CCC(=O)O)NC(=O)[C@H](CC(C)C)NC(=O)N1CCC[C@H]1C(=O)OC(C)(C)C ({OtBu-Pro-CO}-LEAE-OMe)
II: CO[C@H](CC(C)C)NC(=O)[C@H](CCC(=O)O)NC(=O)[C@H](CCC(=O)O)NC(=O)[C@H](CC(C)C)NC(=O)OC(C)(C)C
III: COC(=O)[C@H](CC(C)C)NC(=O)[C@H](CCC(=O)O)NC(=O)[C@H](CCC(=O)O)NC(=O)CNC(=O)OC(C)(C)C (HELM PEPTIDE1{[CC(C)(C)OC(=O)[*:2]].G.E.E.L.[CO[*:1]]}$$$$V2.0)
List the 3 entries from lowest Relative activity to highest Relative activity value. Sort the labels as requested; that list is your answer.
III, I, II
(III: 6%, I: 19%, II: 77%)

I: COC(=O)[C@H](CC(C)C)NC(=O)[C@H](CCC(=O)O)NC(=O)[C@H](CCC(=O)O)NC(=O)[C@H](C)NC(=O)OC(C)(C)C (HELM PEPTIDE1{[CC(C)(C)OC(=O)[*:2]].A.E.E.L.[CO[*:1]]}$$$$V2.0)
II: CC(C)C[C@H](NC(=O)[C@H](CCC(=O)O)NC(=O)[C@H](CCC(=O)O)NC(=O)[C@H](C)NC(=O)[C@@H](N)Cc1ccccc1)C(=O)O (H-FAEEL-OH)
# returns the entry with the larger Relative activity; inputs I and II State your choice using its label.
II
(II: 72%, I: 19%)

Source listed as ChEMBL document CHEMBL1121850.
